Target: ERα (Homo sapiens, UniProt P03372)
Sequence (P03372 1-595): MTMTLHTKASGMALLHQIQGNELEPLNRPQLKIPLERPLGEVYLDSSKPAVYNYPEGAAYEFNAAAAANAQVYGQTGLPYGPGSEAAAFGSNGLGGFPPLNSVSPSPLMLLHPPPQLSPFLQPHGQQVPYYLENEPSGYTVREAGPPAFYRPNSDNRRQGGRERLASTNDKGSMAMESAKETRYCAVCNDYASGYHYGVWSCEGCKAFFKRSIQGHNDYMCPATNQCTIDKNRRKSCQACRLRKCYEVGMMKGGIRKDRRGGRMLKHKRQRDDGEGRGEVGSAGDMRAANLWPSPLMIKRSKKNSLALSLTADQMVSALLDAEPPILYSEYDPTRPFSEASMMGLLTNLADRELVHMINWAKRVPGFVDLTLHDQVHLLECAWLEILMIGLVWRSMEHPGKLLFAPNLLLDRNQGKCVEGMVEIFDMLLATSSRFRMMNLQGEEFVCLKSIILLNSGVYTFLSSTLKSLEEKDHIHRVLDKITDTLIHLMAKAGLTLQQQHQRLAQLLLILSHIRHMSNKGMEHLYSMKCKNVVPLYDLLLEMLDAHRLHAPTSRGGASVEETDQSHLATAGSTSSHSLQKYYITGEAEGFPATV
Assay: Estrogen receptor-alpha (ERα) degradation assay in MCF7 cells using In-Cell Western assay
Format: cell-based
Set-up: assessed for their activity in degrading ERα in MCF-7 cells via western blot; endogenous in cells; host or cells: MCF7 cells
Conditions: ER-alpha degradation in MCF7 cells, 5 days of incubation
observation type: DC50

May I ask what DC50 has been recorded for COc1ccc(-c2sc3cc(O)ccc3c2Oc2ccc(N3CCC(CN4CCN(c5ccc6c(c5)C(=O)N(C5CCC(=O)NC5=O)C6=O)CC4)CC3)cc2)cc1 (stereo not drawn) ?
10 to 100 nM

Data request, read-out DC50, for O=C1CCC(N2Cc3nc(N4CCN(CC5CCN(c6ccc(Oc7c(-c8ccc(O)cc8)sc8cc(O)ccc78)cc6)CC5)CC4)ccc3C2=O)C(=O)N1 (stereo not drawn)
1 to 10 nM

Value lookup for DC50; key = O=C1CCC(N2Cc3nc(N4CCN(CC5CCN(c6ccc(Oc7c(-c8ccc(F)cc8)sc8cc(O)ccc78)cc6)CC5)CC4)ccc3C2=O)C(=O)N1 (stereo not drawn)
1 to 10 nM

###

Quick reference for Dmax among some compounds
Biological target: ERα (Homo sapiens)
Sequence (P03372 1-595): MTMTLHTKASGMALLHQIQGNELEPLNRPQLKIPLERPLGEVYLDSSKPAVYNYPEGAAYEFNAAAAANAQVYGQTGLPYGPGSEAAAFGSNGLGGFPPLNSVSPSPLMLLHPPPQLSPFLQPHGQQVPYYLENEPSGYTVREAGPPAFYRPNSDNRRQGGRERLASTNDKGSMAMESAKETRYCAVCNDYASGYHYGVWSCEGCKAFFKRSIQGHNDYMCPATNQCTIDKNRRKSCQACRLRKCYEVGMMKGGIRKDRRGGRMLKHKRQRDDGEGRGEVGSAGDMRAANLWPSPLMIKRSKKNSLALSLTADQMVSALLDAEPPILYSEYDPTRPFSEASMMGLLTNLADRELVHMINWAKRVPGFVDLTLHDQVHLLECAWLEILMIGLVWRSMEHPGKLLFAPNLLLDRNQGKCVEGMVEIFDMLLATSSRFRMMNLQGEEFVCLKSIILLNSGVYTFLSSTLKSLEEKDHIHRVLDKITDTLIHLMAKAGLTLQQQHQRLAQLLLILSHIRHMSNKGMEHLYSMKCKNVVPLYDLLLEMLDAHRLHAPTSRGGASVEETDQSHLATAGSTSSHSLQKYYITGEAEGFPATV
Assay: Estrogen receptor-alpha (ERα) degradation assay in MCF7 cells using In-Cell Western assay
Assay type: cell-based
Parameters: assessed for their activity in degrading ERα in MCF-7 cells via western blot; endogenous in cells; host or cells: MCF7 cells
Settings: ER-alpha degradation in MCF7 cells, 5 days of incubation

These solved cases illustrate the format of a correct answer.
>  <compound>
O=C1CCC(N2C(=O)c3ccc(N4CCN(C5CCN(CCOc6ccc(Oc7c(-c8ccc(Br)cc8)sc8cc(O)ccc78)cc6)CC5)CC4)cc3C2=O)C(=O)N1 (centres unmarked) [Compound 183]

>  <Dmax>
50 to 75%

$$$$
>  <compound>
O=C1CCC(N2Cc3cc(N4CCN(CC5CCN(c6ccc(Oc7c(-c8ccc(O)cc8)sc8cc(O)ccc78)cc6)CC5)CC4)ccc3C2=O)C(=O)N1 (centres unmarked) [Compound 244]

>  <Dmax>
50 to 75%

$$$$
>  <compound>
O=C1CCC(N2Cc3cc(N4CCN(C5CC(Oc6ccc(Oc7c(-c8ccc(Br)cc8)sc8cc(O)ccc78)cc6)C5)CC4)ccc3C2=O)C(=O)N1 (centres unmarked) [Compound 224]

>  <Dmax>
50 to 75%

$$$$
>  <compound>
O=C1CCC(N2Cc3cc(N4CCN(CCCOc5ccc(Oc6c(-c7ccc(F)c(F)c7)sc7cc(O)ccc67)cc5)CC4)ccc3C2=O)C(=O)N1 (centres unmarked) [Compound 221]

>  <Dmax>
50 to 75%

$$$$

# input for lookup
Can you share its Dmax? I mean this compound: O=C1CCC(N2C(=O)c3ccc(N4CCN(CC5CCN(CCOc6ccc(Oc7c(-c8ccc(Br)cc8)sc8cc(O)ccc78)cc6)CC5)CC4)cc3C2=O)C(=O)N1 (centres unmarked) [Compound 184]
> 75%

###

molecular target: ERα (Homo sapiens); assay: ERE luciferase reporter gene assay in T47D-KBluc cells (target engagement); type: cell-based; design: T47D human breast cancer cells stably transfected with estrogen responsive element/promoter/luciferase reporter gene; host or cells: T47D-KBluc cells; details: 10% FBS, 24 hours, Table 2 VHL centric PROTACs, read-out: IC50
observation type: IC50

Examples with answers:
>  <structure smiles string>
Cc1ncsc1-c1ccc(CNC(=O)[C@@H]2C[C@@H](O)CN2C(=O)[C@H](c2cc(OCCN3CCN(CCOc4ccc(Oc5c(-c6ccc(Br)cc6)sc6cc(O)ccc56)cc4)CC3)no2)C(C)C)cc1

>  <target or test system>
ERα (Homo sapiens)

>  <IC50>
> 0.1 µM

$$$$
>  <structure smiles string>
CC(C)(C)[C@H](NC(=O)Cc1ccc(-c2ccn(CCOc3ccc(Oc4c(-c5ccc(F)cc5)sc5cc(O)ccc45)cc3)n2)cc1)C(=O)N1C[C@H](O)C[C@H]1C(=O)NCc1ccc(Cl)cc1

>  <target or test system>
ERα (Homo sapiens)

>  <IC50>
> 0.1 µM

$$$$

I'd like to know its IC50. The compound in question is `COc1ccc2c(Oc3ccc(OCCN4CCN(CCOCC(=O)N[C@H](C(=O)N5CC(=O)C[C@H]5C(=O)NCc5ccc(-c6scnc6C)cc5)C(C)(C)C)CC4)cc3)c(-c3ccc(Br)cc3)sc2c1`
> 0.1 µM

###

molecular target: ERα (Homo sapiens, UniProt P03372); assay: ERE luciferase reporter gene assay in T47D-KBluc cells (target engagement); type: cell-based; set-up: T47D human breast cancer cells stably transfected with estrogen responsive element/promoter/luciferase reporter gene; host or cells: T47D-KBluc cells; details: 10% FBS, 24 hours, Table 3 cereblon centric PROTACs, read-out: ER-α Luciferase IC50
Measured IC50 by item
Quick note: unit goes after the number.

Would you please look over these solved cases?
>  <compound>
O=C1CCC(N2Cc3nc(N4CCN(CC5CCN(c6c(F)cc(Oc7c(-c8ccc(Br)cc8)sc8cc(O)ccc78)cc6F)CC5)CC4)ccc3C2=O)C(=O)N1 (stereo not shown) [Compound 242]

>  <observation type>
IC50

>  <result>
18.7 nM

$$$$
>  <compound>
O=C1CCC(N2C(=O)c3ccc(N4CCN([C@H]5C[C@H](Oc6ccc(Oc7c(-c8ccc(Br)cc8)sc8cc(O)ccc78)cc6)C5)CC4)cc3C2=O)C(=O)N1 (stereo partly shown) [Compound 223]

>  <observation type>
IC50

>  <result>
41.1 nM

$$$$
>  <compound>
O=C1CCC(N2C(=O)c3ccc(N4CCC(CN5CCC(Oc6ccc(Oc7c(-c8ccc(C(F)(F)F)cc8)sc8cc(O)ccc78)cc6)CC5)CC4)cc3C2=O)C(=O)N1 (stereo not shown) [Compound 188]

>  <observation type>
IC50

>  <result>
8.7 nM

$$$$
>  <compound>
O=C1CCC(N2C(=O)c3ccc(N4CCC(CN5CC(c6ccc(Oc7c(-c8ccc(Br)cc8)sc8cc(O)ccc78)cc6)C5)CC4)cc3C2=O)C(=O)N1 (stereo not shown) [Compound 214]

>  <observation type>
IC50

>  <result>
10.4 nM

$$$$
>  <compound>
COc1ccc(-c2sc3cc(O)ccc3c2Oc2ccc(OCCN3CCN(CCCNc4ccc5c(c4)CN(C4CCC(=O)NC4=O)C5=O)CC3)cc2)cc1 (stereo not shown) [Compound 180]

>  <observation type>
IC50

>  <result>
0.22 nM

$$$$

Find the recorded IC50 belonging to O=C1CCC(N2Cc3cc(N4CCN(CC5CCN(c6ccc(Oc7c(-c8ccc(Br)cc8)sc8cc(O)ccc78)cn6)CC5)CC4)ccc3C2=O)C(=O)N1 (stereo not shown) [Compound 236] and report it.
4.9 nM

GET /values?readout=IC50&item= O=C1CCC(N2Cc3cc(N4CCC(CN5CC(c6ccc(Oc7c(-c8ccc(Br)cc8)sc8cc(O)ccc78)cc6)C5)CC4)ccc3C2=O)C(=O)N1 (stereo not shown) [Compound 216]
2.7 nM

The measurements presented in this section are drawn from patent US11384063B2.
